# Test system: FAB9
# protocol notes: qHTS profiling for inhibitors of Plasmodium falciparum proliferation (AID 504749); note: nearly all actives have a fitted effect of over 60% in size
# measurement setup: P. falciparum in erythrocytes, SYBR Green DNA, 72 h; series mostly up to 28.7 µM
Inconclusive results are not listed. Activity calls are given as the source filed them. Calls come from the whole dose curve; as a rule, active = well fitted inhibition curve with a large enough effect; inconclusive = small, poorly fitted or top-dose-only effect; inactive = flat fitted curve, though single readings scatter.
Hi! Could you answer with just one of these? active, inactive

Answer briefly: the call reported for CCN(CC)C(=O)N[C@@H]1C[C@@H]2c3cccc4[nH]cc(c34)C[C@H]2N(C)C1 in this assay. inactive

Answer briefly: the call reported for C[N+]1([O-])[C@@H]2CC[C@H]1CC(OC(=O)[C@@H](CO)c1ccccc1)C2 (some centres undefined) in this assay. inactive

Answer briefly: the call reported for O=c1ccc2cc(O[C@H]3O[C@@H](CO)[C@@H](O)[C@@H](O)[C@@H]3O)c(O)cc2o1 in this assay. inactive

Answer briefly: the call reported for CCCC[N+]1(C)C2CC(OC(=O)C(CO)c3ccccc3)CC1C1OC12 (centres undefined) in this assay. inactive

Answer briefly: the call reported for C[C@H](N)[C@@H](O)c1ccccc1 in this assay. inactive

Answer briefly: the call reported for C=CC1CN2CCC1CC2C(OC(=O)OCC)c1ccnc2ccc(OC)cc12 (centres undefined) in this assay. active

Answer briefly: the call reported for CC(=O)OC1C[C@H](O[C@@H]2C(O)C[C@H](O[C@@H]3C(O)C[C@@H](OC4CC[C@]5(C)C(CCC6C5CC(O)[C@@]5(C)C(C7=CC(=O)OC7)CC[C@@]65O)C4)OC3C)OC2C)O[C@H](C)[C@H]1O[C@H]1OC(CO)C(O)C(O)C1O (some centres undefined) in this assay. inactive

Answer briefly: the call reported for CC[C@@]1(c2ccc(N)cc2)CCC(=O)NC1=O in this assay. inactive

Answer briefly: the call reported for C[C@H]1CN(C2CCC(C#N)(c3ccc(F)cc3)CC2)CC[C@@]1(C(=O)O)c1ccccc1 (some centres undefined) in this assay. inactive

---

# target system: Cytochrome P450 3A4 (Homo sapiens) (UniProt P08684)
# Sequence (P08684 whole entry, looked up): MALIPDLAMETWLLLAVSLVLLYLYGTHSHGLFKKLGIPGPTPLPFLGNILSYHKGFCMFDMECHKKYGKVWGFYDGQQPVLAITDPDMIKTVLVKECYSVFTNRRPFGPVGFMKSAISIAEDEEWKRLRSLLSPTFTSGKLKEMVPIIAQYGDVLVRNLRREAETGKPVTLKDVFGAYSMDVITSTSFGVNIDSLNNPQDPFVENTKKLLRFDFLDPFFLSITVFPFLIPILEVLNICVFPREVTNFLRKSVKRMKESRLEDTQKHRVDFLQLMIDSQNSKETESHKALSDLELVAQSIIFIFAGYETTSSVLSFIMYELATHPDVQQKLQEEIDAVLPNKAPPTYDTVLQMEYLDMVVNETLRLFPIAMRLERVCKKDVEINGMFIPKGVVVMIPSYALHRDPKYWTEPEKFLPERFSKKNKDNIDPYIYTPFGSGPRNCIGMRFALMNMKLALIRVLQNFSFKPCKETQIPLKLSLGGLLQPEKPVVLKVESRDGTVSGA
# protocol notes: qHTS Assay for Inhibitors and Substrates of Cytochrome P450 3A4 (AID 884); note: nearly all actives have a fitted effect of over 50% in size
# measurement setup: recombinant CYP3A4, Luciferin-PPXE luminescence; series mostly up to 57.1 µM
Inconclusive results are not listed. Active and inactive are the calls of the source. Calls come from the whole dose curve; as a rule, active = well fitted inhibition curve with a large enough effect; inconclusive = small, poorly fitted or top-dose-only effect; inactive = no such curve, though single readings can be large or run the other way.
Hi! Could you answer with just one of these? active, inactive

Answer briefly: the call reported for CCOP(=S)(OCC)SCSC(C)(C)C in this assay. inactive

Answer briefly: the call reported for CC(C)(O)/C=C\C(=O)[C@](C)(O)[C@H]1[C@H](O)C[C@]2(C)[C@@H]3CC=C4[C@@H](C=C(O)C(=O)C4(C)C)[C@]3(C)C(=O)C[C@@]12C in this assay. active

Answer briefly: the call reported for COc1cc(C2c3cc4c(c(O)c3CC3COC(=O)C32)OCO4)cc(OC)c1OC (configuration not stated) in this assay. active

Answer briefly: the call reported for COc1cc2c(cc1-c1cc3cc4ccoc4cc3oc1=O)OCO2 in this assay. active

Answer briefly: the call reported for CC(=O)C1CC[C@H]2C3CC[C@@H]4CC(O)CC[C@@]4(C)C3CC[C@]12C (some centres not stated) in this assay. inactive

Answer briefly: the call reported for CC(C)CC(CN)CC(=O)O (configuration not stated) in this assay. inactive

Answer briefly: the call reported for C[N+](C)(C)Cc1ccccc1 in this assay. inactive

Answer briefly: the call reported for CNC1C2CN3CCC(O2)C13 (configuration not stated) in this assay. inactive

Answer briefly: the call reported for C=CCOC(C)=O in this assay. inactive

Answer briefly: the call reported for CC(N)C(O)c1ccc(O)c(O)c1 (configuration not stated) in this assay. inactive

Answer briefly: the call reported for CCCSC(=O)Cl in this assay. inactive

Answer briefly: the call reported for CCC1/C=C/C=CCC(C)C(O)[C@@](C)(O)C(=O)C(C)C(O)C(C)C(=O)C(C)C(O)C(C)C=CC(=O)O[C@H]2C(C)C(CC1)O[C@]1(CCC(C)C(CC(C)O)O1)C2C (some centres not stated) in this assay. active

---

# protocol notes: Quantitative high throughput screen for delayed death inhibitors of the malarial parasite plastid, 48 hour incubation (AID 488752); note: nearly all actives have a fitted effect of over 65% in size; note: potency is the fitted concentration of half-maximal effect
# measurement setup: Plasmodium falciparum growth; series mostly up to 28.7 µM
Inconclusive results are not listed. Activity calls are given as the source filed them. Calls come from the whole dose curve; as a rule, active = well fitted inhibition curve with a large enough effect; inconclusive = small, poorly fitted or top-dose-only effect, or effect the other way; inactive = flat fitted curve, though single readings scatter.
measured parameter: Potency

Solved cases (5 shown):
CCCN1CCCC(c2cccc(O)c2)C1 (stereo unspecified)    inactive
CCC(CO)NC(=O)[C@@H]1C=C2c3cccc4[nH]cc(c34)C[C@H]2N(C)C1 (stereo partly specified)    inactive
CC12CCC3C(CCC4=C(O)C(=O)CCC43C)C1CCC2=O (stereo unspecified)    inactive
C[C@H]1OC[C@@H](C[N+](C)(C)C)O1    inactive
C[C@]12CC[C@H](OS(=O)(=O)O)CC1=CCC1C2CC[C@]2(C)C(=O)CC[C@@H]12 (stereo partly specified)    inactive

Please find the next molecule below.
// lookup Potency for CCCN1CCc2cc(O)cc3c2C1Cc1ccc(O)c(O)c1-3 (stereo unspecified) 8.28 µM (active)

---

# protocol notes: Primary qHTS for Vero E6 cytotoxicity: counterscreen for inhibitors of SARS-S pseudo-typed particle cell entry (AID 1479150); for activity change, negative = cytotoxicity: % is set by controls: 0 for no effect and ±100 for the full control effect
# measurement setup: cell viability; series mostly up to 57.1 µM
Records with an inconclusive call do not appear. Activity calls are given as the source filed them. Calls come from the whole dose curve.
measured parameter: activity change, negative = cytotoxicity

C[C@H](CCC(=O)O)[C@H]1CC[C@H]2[C@@H]3CC[C@@H]4C[C@H](O)CC[C@]4(C)[C@@H]3C[C@H](O)[C@]12C    inactive
C[N@+]12CCCC[C@@H]1CCC(=C(c1cccs1)c1cccs1)C2    inactive
N[C@H](Cc1cnc[nH]1)C(=O)O    inactive
CC1(C)C[C@H]1C(=O)N/C(=C\CCCCSC[C@@H](N)C(=O)O)C(=O)O    inactive

// lookup activity change, negative = cytotoxicity for Nc1nc2c(c(=O)[nH]1)N(C=O)C(CNc1ccc(C(=O)N[C@@H](CCC(=O)O)C(=O)O)cc1)CN2 (stereo not given in full) 2.47% [at 0.573 µM] (inactive)

---

# protocol notes: qHTS for ATAD5 Agonist screened against the NCATS CANVASS Library (AID 1347367);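 note: luciferase reporter driven by ATAD5 which rises upon DNA damage; 0% is about no effect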
# measurement setup: HEK293T ATAD5-luciferase reporter, luminescence, 16 h; series mostly up to 46.1 µM
Activity calls are given as the source filed them. Calls follow the shape of the dose curve; as a rule, active = well fitted curve in the direction sought with a large enough effect; inconclusive = small, poorly fitted or top-dose-only effect, or another doubt; inactive = no such curve, though single readings can be large or run the other way.
measured parameter: outcome

Solved cases (5 shown):
C[C@]12CCC3[C@@H](CC[C@@H]4C[C@@H](O)CC[C@]34CO)[C@@]1(O)CC[C@@H]2C1=CC(=O)OC1 (stereo partly drawn)    inactive
CCCCC1CC[C@H]2CCCC(CCC)N12 (stereo partly drawn)    inactive
C[C@]12CC(O)C3[C@@H](CCC4C[C@@H](O)CC[C@@]43CO)[C@@]1(O)CC[C@@H]2C1=CC(=O)OC1 (stereo partly drawn)    inactive
CCC(=O)N[C@@H](C[C@H](C)C(Cl)(Cl)Cl)C(=O)N1C(=O)C=C(OC)[C@@H]1C[C@H](C)C(Cl)Cl    inactive
CC[C@H]1CN2CCc3c([nH]c4cccc(OC)c34)[C@@H]2C[C@@H]1/C(=C\OC)C(=O)OC    inactive

// lookup outcome for CCCC[C@@H](C)/C=C1/CN2CCC[C@H]2[C@@](C)(O)[C@@H]1O inactive

// lookup outcome for CO[C@@H](/C=C/CC/C=C/C(=O)O)[C@@H](O)[C@H](C)/C=C(\C)[C@H](O)[C@H](C)C(=O)CCCC1CC(=O)NC(=O)C1 inactive

// lookup outcome for C1=C2CCCN[C@H]2C2CC1[C@H]1CCCCN1C2 (stereo partly drawn) inactive

---

# protocol notes: Stat Signaling Pathway (AID 446);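 note: ME-180 cervical cancer cells given 40 pM IL-6 alongside compound; SIE-controlled beta-lactamase reporter measured as 460/530 nm FRET emission ratio; % is set by controls: 0 for no effect and ±100 for the full control effect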
# measurement setup: ME-180 (cervical carcinoma) SIE beta-lactamase reporter, IL-6 stimulated, 5 h; series mostly up to 17.2 µM
Inconclusive results are not listed. Calls of active or inactive are those of the source. The call rests on the fitted dose curve; in most records, active means well fitted curve in either direction with a large enough effect (not every such curve was filed as active); inconclusive means small, poorly fitted or top-dose-only effect, or another doubt; inactive means flat fitted curve, though single readings scatter.
measured parameter: outcome

Oc1ccc2c3c1O[C@H]1[C@@H](O)CC[C@]4(O)[C@H](C2)N(CC2CCC2)CC[C@@]314    inactive
O=C(Oc1ccccc1)N1CCC2(CCN(Cc3ccccc3)CC2)CC1    inactive
CCN1C[C@]2(COC)CC[C@H](O)[C@@]34[C@@H]5C[C@H]6[C@@H](OC)[C@H]5[C@](O)(C[C@@H]6OC)[C@@](O)([C@@H](OC)[C@H]23)[C@@H]14    inactive
CS(=O)(=O)N1CCC2(CC1)CN(Cc1ccncc1)C2    inactive

---

# protocol notes: qHTS assay for cell viability of the p53RE-bla HCT-116 cell line (AID 743292); note: nearly all actives have a fitted effect of over 55% in size
# measurement setup: p53RE-bla HCT-116 viability, ATP luminescence, 16 h; series mostly up to 95 µM
Records with an inconclusive call do not appear. Calls of active or inactive are those of the source. Calls follow the shape of the dose curve; as a rule, active = well fitted cell-killing curve with a large enough effect; inconclusive = small, poorly fitted or top-dose-only effect, or effect the other way; inactive = flat fitted curve, though single readings scatter.
Hi! Could you answer with just one of these? active, inactive

Answer briefly: the call reported for COc1ccc(N)cc1 in this assay. inactive

Answer briefly: the call reported for CC(Cl)Cl in this assay. inactive

Answer briefly: the call reported for COc1nc(NC(C)C)nc(NC(C)C)n1 in this assay. inactive

Answer briefly: the call reported for Cc1ccc2ccccc2c1 in this assay. inactive

Answer briefly: the call reported for Clc1nc(Cl)nc(Nc2ccccc2Cl)n1 in this assay. inactive

Answer briefly: the call reported for CC(C)(c1ccccc1)c1ccc(O)cc1 in this assay. inactive

Answer briefly: the call reported for O=C(O)COc1cc(Cl)c(Cl)cc1Cl in this assay. inactive

Answer briefly: the call reported for ClC1=C(Cl)C2(Cl)C3C4CC(C5OC45)C3C1(Cl)C2(Cl)Cl (stereo not drawn) in this assay. inactive

Answer briefly: the call reported for CCCOC(=O)c1ccccc1C(=O)OCCC in this assay. inactive

Answer briefly: the call reported for C[C@]12CC[C@H]3[C@@H](CCC4=CC(=O)CC[C@@]43C)[C@@H]1CC[C@@H]2O in this assay. inactive

Answer briefly: the call reported for C=CC(C)=O in this assay. inactive

Answer briefly: the call reported for CCOP(=S)(OCC)SCSC(C)(C)C in this assay. inactive

Answer briefly: the call reported for C=CC(=C)C in this assay. inactive

Answer briefly: the call reported for Clc1ccc2ccccc2c1 in this assay. inactive

Answer briefly: the call reported for N#CCCCl in this assay. inactive

Answer briefly: the call reported for Brc1ccccc1 in this assay. inactive

Answer briefly: the call reported for c1ccc(OP(Oc2ccccc2)Oc2ccccc2)cc1 in this assay. inactive

Answer briefly: the call reported for c1nc[nH]n1 in this assay. inactive

Answer briefly: the call reported for COC1=CC(=O)OC(CCc2ccccc2)C1 (stereo not drawn) in this assay. inactive

Answer briefly: the call reported for Cc1ccccc1N in this assay. inactive

Answer briefly: the call reported for C/C=C/c1ccc2c(c1)OCO2 in this assay. inactive

Answer briefly: the call reported for ClC(Cl)=C(Cl)C(Cl)=C(Cl)Cl in this assay. inactive

Answer briefly: the call reported for Nc1c(Cl)c(Cl)nc(C(=O)O)c1Cl in this assay. inactive

Answer briefly: the call reported for C=C(C)C(=O)OCC1CO1 (stereo not drawn) in this assay. inactive

Answer briefly: the call reported for CC(C)OC(=O)Nc1cccc(Cl)c1 in this assay. inactive

Answer briefly: the call reported for OCC1CO1 (stereo not drawn) in this assay. inactive

Answer briefly: the call reported for CCCC(=O)Cl in this assay. inactive

Answer briefly: the call reported for CCOc1ccc(N)cc1 in this assay. inactive

Answer briefly: the call reported for Clc1cc(Cl)c(-c2cc(Cl)c(Cl)cc2Cl)cc1Cl in this assay. active

Answer briefly: the call reported for CNC(=O)N(C)c1nnc(C(C)(C)C)s1 in this assay. inactive

Answer briefly: the call reported for CCOP(=S)(OCC)Oc1ccc([N+](=O)[O-])cc1 in this assay. inactive

Answer briefly: the call reported for Cc1ccc(O)c(C)c1 in this assay. inactive

Answer briefly: the call reported for c1ccc2c(c1)CCCC2 in this assay. inactive
